- protocolSummary: Single ascending dose study of Compound 2 in healthy volunteers (Part A): safety, tolerability, pharmacokinetic
- Assay type: in vivo, human
- protocolConditions: both sexes, human, plasma, oral, 400 mg; read-out: C24h
metricName: concentration at 24 h

Item under review: C[C@@]1(F)[C@H](O)[C@@H](CO)O[C@H]1n1cnc2c(=O)[nH]c(N)nc21 [Metabolite 1-7] . Reported concentration at 24 h?
23.5 ng/mL

----------
- protocolSummary: Single ascending dose study of Compound 2 in healthy volunteers (Part A): safety, tolerability, pharmacokinetic
- Type: in vivo, human
- protocolConditions: both sexes, human, plasma, oral, 100 mg; read-out: C24h
metricName: concentration at 24 h (ng/mL)
Give bare numbers, in ng/mL.

Sample C[C@@]1(F)[C@H](O)[C@@H](CO)O[C@H]1n1cnc2c(=O)[nH]c(N)nc21 [Metabolite 1-7] — what was its concentration at 24 h?
4.45

----------
- protocolSummary: Plasma levels of metabolites following single oral doses of Compound 2, monkeys
- Assay type: in vivo, monkey
- protocolConditions: monkey, plasma, po, 100 mg/kg
metricName: Tmax

May I ask what Tmax has been recorded for "CNc1nc(N)nc2c1ncn2[C@@H]1O[C@H](CO[P@@](=O)(N[C@@H](C)C(=O)OC(C)C)Oc2ccccc2)[C@@H](O)[C@@]1(C)F" ?
1 to 2 h

----------
- protocolSummary: Storage of Compound 1 forms and amorphous salts at 25° C./60% RH for 14 days (HPLC, XRPD, observation)
- protocolConditions: 0 days at 25° C./60% RH
metricName: Observation

CNc1nc(N)nc2c1ncn2C1OC(COP(=O)(NC(C)C(=O)OC(C)C)Oc2ccccc2)C(O)C1(C)F.Cl (stereo not drawn) [Sample 1-4] :: White solid
CNc1nc(N)nc2c1ncn2[C@@H]1O[C@H](CO[P@@](=O)(N[C@@H](C)C(=O)OC(C)C)Oc2ccccc2)[C@@H](O)[C@@]1(C)F [Sample 1-1] :: White solid
CNc1nc(N)nc2c1ncn2[C@@H]1O[C@H](CO[P@@](=O)(N[C@@H](C)C(=O)OC(C)C)Oc2ccccc2)[C@@H](O)[C@@]1(C)F [Sample 1-3] :: White solid

----------
- protocolSummary: Plasma profiles of Compound 2 metabolites in monkeys
- Type: in vivo, cynomolgus monkeys
- protocolConditions: cynomolgus monkey, plasma, po, 30 mg/kg
metricName: Tmax

CNc1nc(N)nc2c1ncn2[C@@H]1O[C@H](CO[P@@](=O)(N[C@@H](C)C(=O)OC(C)C)Oc2ccccc2)[C@@H](O)[C@@]1(C)F :: 0.5 to 2 h

Next:
Report Tmax for C[C@@]1(F)[C@H](O)[C@@H](CO)O[C@H]1n1cnc2c(=O)[nH]c(N)nc21 [Metabolite 1-7] please.
12 to 24 h

----------
- protocolSummary: Single ascending dose study of Compound 2 in GT1-HCV infected patients (Part B): safety, tolerability, pharmacokinetic
- Type: in vivo, human
- protocolConditions: human, in vivo, 600 mg; read-out: Tmax
metricName: Tmax
# include the unit after the value

I have this compound here, "CNc1nc(N)nc2c1ncn2[C@@H]1O[C@H](CO[P@@](=O)(N[C@@H](C)C(=O)OC(C)C)Oc2ccccc2)[C@@H](O)[C@@]1(C)F" , and I need its recorded Tmax.
1 h

----------
- protocolSummary: Single ascending dose study of Compound 2 in GT1-HCV infected patients (Part B): safety, tolerability, pharmacokinetic
- Format: in vivo, human
- protocolConditions: human, plasma, oral, 600 mg, GT1-HCV infected patients; Compound 2 600 mg; mean±SD; read-out: C24h
metricName: concentration at 24 h (ng/mL)
One number for each entry, in ng/mL.

Look up concentration at 24 h for this compound: C[C@@]1(F)[C@H](O)[C@@H](CO)O[C@H]1n1cnc2c(=O)[nH]c(N)nc21 [Metabolite 1-7]
25.8
